Biological target: ScSbtB (SbtB) (Synechocystis sp. PCC 6803, UniProt P73954, R46A)
Sequence (P73954 2-110 R46A): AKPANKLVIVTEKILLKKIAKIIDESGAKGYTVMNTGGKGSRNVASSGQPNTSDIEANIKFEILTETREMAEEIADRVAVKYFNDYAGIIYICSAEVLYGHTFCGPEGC
Test: isothermal titration calorimetry
Details: Tris-HCl, 150 mM NaCl, pH 7.9-8.0, 20 °C; 30 µM trimer; one-site model
Measured pKd accompanies every entry in the list below.
// pKd is dimensionless: -log10 of concentration (M)

COMPOUND | SYSTEM NAME | pKd
Nc1ncnc2c1ncn2[C@@H]1O[C@H](COP(=O)(O)O)[C@@H](O)[C@H]1O [AMP] | ScSbtB (SbtB) (Synechocystis sp. PCC 6803, UniProt P73954, R46A) | 4.03

In the following, a different compound is considered.
[Q] Suppose we examine the compound Nc1ncnc2c1ncn2[C@@H]1O[C@H](COP(=O)(O)OP(=O)(O)O)[C@@H](O)[C@H]1O [ADP] ; what pKd value has been reported?
[A] 3.36

----------
Molecular target: ScSbtB (SbtB) (Synechocystis sp. PCC 6803, UniProt P73954, R43A)
Sequence (P73954 2-110 R43A): as the sequence (P73954 2-110 R46A) above, with R42A, A45R counted along it
Assay: isothermal titration calorimetry
Conditions: Tris-HCl, 150 mM NaCl, pH 7.9-8.0, 20 °C; 30 µM trimer; one-site model
OBSERVABLE: Kd
Answer with the figure and its unit, nothing else.

COMPOUND | MEAS VALUE
Nc1ncnc2c1ncn2[C@@H]1O[C@H](COP(=O)(O)OP(=O)(O)OP(=O)(O)O)[C@@H](O)[C@H]1O [ATP] | 213 µM

Attention now turns to another entry.
[Q] Which Kd value belongs to Nc1ncnc2c1ncn2[C@@H]1O[C@H](COP(=O)(O)OP(=O)(O)O)[C@@H](O)[C@H]1O [ADP] ?
[A] 472 µM
